Origin of measurements: patent US20110217237A1

# SUBJECT_OF_TEST: T1, human DLL4 extracellular domain (human, UniProt Q9NR61 27-529)
# T1 construct: purified recombinant ECD; biotin-labelled or 6xHis-tagged depending on the assay; also called huDLL4 ECD; hu DLL4 ECD
# PROTOCOL_SUMMARY: SPR (Biacore)
pKd: −log10 of the molar value.
METRIC_NAME: pKd

* h38H12.14 (antibody, V domains shown, humanized IgG; also called VH.2a/VL.1a 38H12) VH: EVQLVESGGGLVQPGGSLRLSCAASGFTFSNYGMYWIRQAPGKGLEWVAFISHGGGITYYRDSVKGRFTISRDNSKSTLYLQMNSLRAEDTAVYHCAALNWELGIDYWGQGTMVTVSS VL: DIQMTQSPSSLSASVGDRVTITCRASEDIYSNLAWYQKKPGKSPKLLIYAANRLQDGVPSRFSGSGSGTDYTLTISSLQPEDFATYFCLQGSKFPLTFGQGTKLEIKR | 9.52
* h38H12.10 (antibody, V domains shown, humanized IgG; also called VH.1b/VL.1a 38H12) VH: EVQLVESGGGVVQPGRSLRLSCAASGFTFSNYGMYWVRQAPGKGLEWVAFISHGGGITYYRDSVKGRFTISRDNSKNTLYLQMNSLRAEDTAVYYCAALNWELGIDYWGQGTMVTVSS VL: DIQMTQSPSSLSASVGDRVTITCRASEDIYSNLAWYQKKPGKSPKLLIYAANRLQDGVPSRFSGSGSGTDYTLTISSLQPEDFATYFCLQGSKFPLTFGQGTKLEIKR | 9.24
